Source of measurements: patent US10093630B2

- system.under.test: MAGL (Mus musculus, UniProt O35678)
- Construct: Proteomes (mouse brain membrane fraction or cell lysates); from tissue; host or cells: mouse brain membrane fraction (or cell lysates, not specified)
- Sequence (O35678 whole entry): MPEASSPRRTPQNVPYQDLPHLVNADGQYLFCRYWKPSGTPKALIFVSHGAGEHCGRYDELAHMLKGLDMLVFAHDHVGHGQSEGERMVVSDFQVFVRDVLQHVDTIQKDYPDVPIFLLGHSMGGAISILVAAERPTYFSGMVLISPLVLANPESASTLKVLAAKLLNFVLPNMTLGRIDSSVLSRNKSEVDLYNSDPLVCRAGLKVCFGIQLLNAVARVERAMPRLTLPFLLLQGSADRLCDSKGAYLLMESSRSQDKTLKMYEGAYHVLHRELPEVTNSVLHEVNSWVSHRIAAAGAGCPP
- test.name: In vitro competitive activity-based protein profiling (gel-based, FP-Rh or HT-01 probe)
- Format: biochemical
pIC50: −log10 of the molar value.
experimental.endpoint: pIC50

For record O=C(N1CCN(Cc2ccccc2)CC1)n1cc(Cl)cn1 the listed pIC50 is > 7.00

---

- system.under.test: PLA2G7 (Mus musculus)
- Construct: Proteomes (mouse brain membrane fraction or cell lysates); from tissue; host or cells: mouse brain membrane fraction (or cell lysates, not specified)
- Sequence (Q60963 22-440): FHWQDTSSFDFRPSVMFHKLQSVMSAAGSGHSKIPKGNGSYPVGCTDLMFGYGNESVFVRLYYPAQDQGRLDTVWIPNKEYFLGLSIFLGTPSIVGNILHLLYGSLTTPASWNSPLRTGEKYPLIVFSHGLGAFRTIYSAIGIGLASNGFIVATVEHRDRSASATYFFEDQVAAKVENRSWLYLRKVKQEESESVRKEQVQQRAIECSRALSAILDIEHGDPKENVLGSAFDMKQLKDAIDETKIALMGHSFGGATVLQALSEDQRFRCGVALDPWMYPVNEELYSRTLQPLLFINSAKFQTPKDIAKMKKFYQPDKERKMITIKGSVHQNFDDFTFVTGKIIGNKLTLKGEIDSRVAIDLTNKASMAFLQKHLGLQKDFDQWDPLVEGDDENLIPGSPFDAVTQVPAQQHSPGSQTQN
- test.name: In vitro competitive activity-based protein profiling (gel-based, FP-Rh or HT-01 probe)
- Type: biochemical
- experimental.conditions: 10 μM inhibitor; read-out: % Inhibition at 10 μM, D = PLA2G7
experimental.endpoint: inhibition at 10 µM

For record O=C(c1ccccc1)N1CCCN(C(=O)n2cc(C(F)(F)F)cn2)CC1 [Example 158] the listed inhibition at 10 µM is > 75%

For record O=C(N1CCCN(Cc2ccccc2)CC1)n1cc(C(F)(F)F)cn1 [Example 157] the listed inhibition at 10 µM is > 75%

For record Cc1cnn(C(=O)N(C)CCN(C)C(=O)c2ccccc2)c1 [Example 172] the listed inhibition at 10 µM is < 25%

For record N#Cc1cnn(C(=O)N2CCN(Cc3ccc(-c4ccccc4)cc3OCc3ccccc3)CC2)c1 [Example 146] the listed inhibition at 10 µM is > 75%

For record O=C(N1CCN(c2ccc(Cl)cc2)CC1)n1cc(C(F)(F)F)cn1 [Example 229] the listed inhibition at 10 µM is > 75%

For record CC(C)(C)OC(=O)N1CCCN(C(=O)n2cccn2)CC1 [Example 25] the listed inhibition at 10 µM is < 25%

For record CN1CCN(C(=O)n2cc(C(F)(F)F)cn2)CC1 [Example 151] the listed inhibition at 10 µM is > 75%

For record CC(=O)N(C)CCN(C)C(=O)n1cc(Cl)cn1 [Example 193] the listed inhibition at 10 µM is < 25%

For record O=C(c1cnn(C(=O)N2CCN(Cc3ccncn3)CC2)c1)N1CCOCC1 [Example 54] the listed inhibition at 10 µM is > 75%
